pEC50 values for the compounds below.
Biological target: ΔF508-CFTR (Homo sapiens, UniProt P13569, DEL508-508)
Construct: host or cells: CFBE41o-, doxycycline-inducible
Sequence (P13569 with tags, fused parts or gaps DEL508-508): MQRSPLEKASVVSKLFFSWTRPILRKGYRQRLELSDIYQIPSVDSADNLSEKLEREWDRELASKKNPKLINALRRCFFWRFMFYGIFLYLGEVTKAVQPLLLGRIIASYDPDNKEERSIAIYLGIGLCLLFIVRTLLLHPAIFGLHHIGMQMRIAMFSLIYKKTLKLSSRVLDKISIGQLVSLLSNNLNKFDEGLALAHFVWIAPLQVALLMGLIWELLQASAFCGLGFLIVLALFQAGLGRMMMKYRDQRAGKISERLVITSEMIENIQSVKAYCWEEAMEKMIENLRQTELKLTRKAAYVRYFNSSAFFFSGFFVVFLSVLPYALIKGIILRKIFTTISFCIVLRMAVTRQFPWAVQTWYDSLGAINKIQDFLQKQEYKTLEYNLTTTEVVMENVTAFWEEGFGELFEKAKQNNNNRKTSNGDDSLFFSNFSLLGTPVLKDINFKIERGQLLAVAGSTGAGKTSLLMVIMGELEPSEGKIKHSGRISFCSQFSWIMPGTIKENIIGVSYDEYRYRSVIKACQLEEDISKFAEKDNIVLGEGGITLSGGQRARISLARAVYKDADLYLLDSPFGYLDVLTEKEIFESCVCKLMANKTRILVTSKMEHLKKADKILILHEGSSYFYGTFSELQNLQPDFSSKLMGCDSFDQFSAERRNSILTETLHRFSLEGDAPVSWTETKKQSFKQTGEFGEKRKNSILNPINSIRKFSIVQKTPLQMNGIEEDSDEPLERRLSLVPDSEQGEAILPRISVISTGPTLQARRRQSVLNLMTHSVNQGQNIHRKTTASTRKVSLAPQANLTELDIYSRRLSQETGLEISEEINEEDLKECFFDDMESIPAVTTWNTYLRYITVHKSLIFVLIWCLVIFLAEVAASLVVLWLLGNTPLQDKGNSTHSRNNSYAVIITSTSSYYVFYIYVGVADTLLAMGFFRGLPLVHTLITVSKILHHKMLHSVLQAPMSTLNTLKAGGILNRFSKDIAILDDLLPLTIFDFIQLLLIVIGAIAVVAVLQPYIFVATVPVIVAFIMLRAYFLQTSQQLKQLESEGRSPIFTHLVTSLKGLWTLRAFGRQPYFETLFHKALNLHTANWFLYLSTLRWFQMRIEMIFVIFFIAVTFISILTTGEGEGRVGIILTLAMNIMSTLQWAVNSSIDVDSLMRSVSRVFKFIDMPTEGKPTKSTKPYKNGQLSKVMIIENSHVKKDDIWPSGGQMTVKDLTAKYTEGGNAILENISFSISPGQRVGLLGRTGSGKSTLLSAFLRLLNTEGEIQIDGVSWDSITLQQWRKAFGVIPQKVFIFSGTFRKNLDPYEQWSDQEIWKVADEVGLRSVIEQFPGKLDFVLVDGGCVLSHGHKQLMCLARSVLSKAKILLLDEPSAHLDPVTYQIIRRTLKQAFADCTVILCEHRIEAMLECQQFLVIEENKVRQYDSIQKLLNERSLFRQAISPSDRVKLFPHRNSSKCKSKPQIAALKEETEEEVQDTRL
Experiment: CFTR cell surface levels using HRP-tagged ΔF508-CFTR expressing CFBE cells, in the presence of a co-corrector
Format: cell-based
Conditions: HRP-tagged ΔF508-CFTR expressing CFBE cells, in the presence of 3 μM co-corrector; read-out: EC50
pEC50: −log10 of the molar value.
METRIC: pEC50

- COC(C)(C)C1CCN(c2cc(C(=O)O)nc3c2c(C(C)C)nn3-c2ccc(F)cc2)CC1: 6.41
- CC(C)c1nn(-c2cccc(N3CCCC3)c2)c2nc(C(=O)O)cc(-c3ccc(N4CCOCC4)cc3)c12: 6.31
- CC(C)c1nn(-c2ccnc(Cl)c2)c2nc(C(=O)O)cc(-c3ccc(N4CCOCC4)cc3)c12: 6.28
- Cc1cccc(-n2nc(C(C)C)c3c(N4CC5CN(C(=O)OC(C)(C)C)CC5C4)cc(C(=O)O)nc32)c1 (stereo not drawn): 5.95
- CC(C)c1nn(-c2ccc(F)cc2)c2nc(C(=O)O)cc(N3CCCN(C4CCC4)CC3)c12: 5.78
- CCOCC(=O)N1CCN(c2cc(C(=O)O)nc3c2c(C2CCC2)nn3-c2ccccc2)CC1: 5.78
- CO[C@H]1CCN(c2cc(C(=O)O)nc3c2c(C2CCC2)nn3-c2ccccc2)C1: 5.85
- O=C(O)c1cc(N2CCC(O)CC2)c2c(C3CCC3)nn(-c3ccccc3)c2n1: 6.45
- COCCN1CCC2(CC1)CCN(c1cc(C(=O)O)nc3c1c(C1CCC1)nn3-c1ccc(F)cc1)CC2: 6.73
- O=C(O)c1cc(OC2CCC(F)(F)CC2)c2c(C3CCC3)nn(-c3ccccc3)c2n1: 6.65
- O=C(O)c1cc(N2CC(N3CCC(N4CCOCC4)CC3)C2)c2c(C3CCC3)nn(-c3ccccc3)c2n1: 6.06
- O=C(O)c1cc(N2CCC3(C2)CC3(F)F)c2c(C3CCC3)nn(-c3ccccc3)c2n1 (stereo not drawn): 6.04
- CN(CCN1CCOCC1)c1cc(C(=O)O)nc2c1c(C1CCC1)nn2-c1ccccc1: 5.71
- CC(C)N1CCN(c2ccc(-c3cc(C(=O)O)nc4c3c(C3CCC3)nn4C3CCCCC3)cc2)CC1: 6.50
- O=C(O)c1cc(N2CCC(N3CCOCC3)CC2)c2c(C3CCC3)nn(-c3ccc(OC(F)(F)F)cc3)c2n1: 7.25
- CO[C@@H]1CCC[C@@H](n2nc(C(C)C)c3c(-c4ccc(N5CCOCC5)cc4)cc(C(=O)O)nc32)C1: 6.22
- Cc1nn(-c2ccccc2)c2nc(C(=O)O)cc(-c3ccc(NC4CCOCC4)cc3)c12: 6.07
- CO[C@H]1CCC[C@@H](n2nc(C(C)C)c3c(-c4ccc(N5CCOCC5)cc4)cc(C(=O)O)nc32)C1: 6.09
- COC1CCN(c2cc(C(=O)O)nc3c2c(C(C)C)nn3-c2ccnc(N3CCCC3)c2)CC1: 6.51
- CC(C)c1nn(-c2ccc(F)cc2)c2nc(C(=O)O)cc(N3CCC(O)(CN(C)C(C)C)CC3)c12: 6.06
- CC(C)c1nn(-c2ccc(F)cc2)c2nc(C(=O)O)cc(N3CCC(C)(N4CCN(C)CC4)CC3)c12: 5.78
- C[C@H]1CN(c2cc(C(=O)O)nc3c2c(C2CCC2)nn3C2CCCCC2)CCN1Cc1ccccc1: 6.15
- Cc1nn(-c2ccccc2)c2nc(C(=O)O)cc(OCC3(C)CC(F)(F)C3)c12: 5.84
- COc1ccc(-c2cc(C(=O)O)nc3c2c(C)nn3C2CCCCC2)cc1: 5.53
- CN(C)CC1CN(c2cc(C(=O)O)nc3c2c(C2CCC2)nn3-c2ccccc2)CCO1 (stereo not drawn): 6.04
- CC(C)(C)OC(=O)N1CCCC1c1nn(-c2ccccc2)c2nc(C(=O)O)cc(-c3ccc(N4CCOCC4)cc3)c12 (stereo not drawn): 6.37
- O=C(O)c1cc(O[C@@H]2CCOC2)c2c(C3CCC3)nn(-c3ccccc3)c2n1: 6.21
- CC(C)c1nn(-c2cccc(N(C)C)n2)c2nc(C(=O)O)cc(-c3ccc(N4CCOCC4)cc3)c12: 6.38

* * *

Target: ΔF508-CFTR (Homo sapiens, UniProt P13569, DEL508-508)
Construct: host or cells: CFBE41o-, doxycycline-inducible
Experiment: CFTR cell surface levels using HRP-tagged ΔF508-CFTR expressing CFBE cells, intrinsic corrector capacity
Type: cell-based
Conditions: HRP-tagged ΔF508-CFTR CFBE41o- cells, compounds alone (intrinsic corrector capacity), 20 hours at 33° C.; read-out: EC50
EC50 values for the molecules below.
METRIC: EC50 (nM)

* CC(C)c1nn(C2CCCCC2)c2nc(C(=O)O)cc(-c3cnc(N(C)C4CCOCC4)nc3)c12 [compound 236] | 656
* COc1cccc(-n2nc(C)c3c(-c4ccc(N5CCOCC5)cc4)cc(C(=O)O)nc32)c1 [compound 21] | 1060
* CC(C)c1nn(-c2cccc(N3CCC(F)C3)c2)c2nc(C(=O)O)cc(-c3ccc(N4CCOCC4)cc3)c12 (stereo not shown) [compound 165] | 794
* Cc1nn(-c2ccccc2)c2nc(C(=O)O)cc(N3CC4CNCCN4C3=O)c12 (stereo not shown) [compound 290] | 7500
* CC(C)c1nn(-c2cccc(N3CCCC3)c2)c2nc(C(=O)O)cc(-c3ccc(N4CCC(C#N)CC4)cc3)c12 [compound 221] | 315
* Cc1cccc(-n2nc(C(C)C)c3c(N4CCC5C(CCN5CC#N)C4)cc(C(=O)O)nc32)c1 (stereo not shown) [compound 256] | 3340
* Cc1nn(-c2ccccc2)c2nc(C(=O)O)cc(OCC3(F)CCN(C)C3)c12 (stereo not shown) [compound 378] | 5010
* Cc1nn(C)cc1-c1cc(C(=O)O)nc2c1c(C(C)C)nn2C1CCCCC1 [compound 352] | 1510
* Cc1nn(-c2ccccc2)c2nc(C(=O)O)cc(OC3CCN(C)CC3)c12 [compound 339] | 7500
* CC(C)c1nn(C2CCCCC2)c2nc(C(=O)O)cc(-c3cnc(N4CCCC(C#N)C4)nc3)c12 (stereo not shown) [compound 366] | 436
* Cc1nn(-c2ccccc2)c2nc(C(=O)O)cc(-c3ccc(N4CCOCC4)cc3Cl)c12 [compound 26] | 1270
* CC(C)c1nn(-c2cccc(N3CC(C)(C)C3)c2)c2nc(C(=O)O)cc(-c3ccc(N4CCOCC4)cc3)c12 [compound 160] | 447
* CC(C)c1nn(C2CCCC2)c2nc(C(=O)O)cc(-c3ccc(N4CCOCC4)cc3)c12 [compound 69] | 970

* * *

Biological target: ΔF508-CFTR (Homo sapiens, UniProt P13569, DEL508-508)
Construct: host or cells: CFBE41o-, doxycycline-inducible
Assay: CFTR cell surface levels using HRP-tagged ΔF508-CFTR expressing CFBE cells, in the presence of a co-corrector
Assay type: cell-based
Conditions: HRP-tagged ΔF508-CFTR expressing CFBE cells, in the presence of 3 μM co-corrector; read-out: EC50
EC50 values for the molecules below.
METRIC: EC50 (nM)

- CC(C)c1nn(C2CCCCC2)c2nc(C(=O)O)cc(-c3ccc(N4CCC(F)(F)C4)nc3)c12: 1060
- COCCOC1CCN(c2cc(C(=O)O)nc3c2c(C)nn3-c2ccccc2)CC1: 1860
- COC1CCCN(C2CCN(c3cc(C(=O)O)nc4c3c(C3CCC3)nn4-c3ccc(F)cc3)CC2)C1 (stereo not shown): 819
- COC1CCN(C2CCN(c3cc(C(=O)O)nc4c3c(OC(C)C)nn4-c3ccc(F)cc3)CC2)CC1: 340
- O=C(O)c1cc(-c2ccc(N3CCOCC3)cc2)c2c(C3CCCO3)nn(-c3ccccc3)c2n1 (stereo not shown): 1260
- Cc1cccc(-n2nc(C(C)C)c3c(N4CCC(C(F)(F)F)C4)cc(C(=O)O)nc32)c1 (stereo not shown): 915
- COC1CN(c2cc(C(=O)O)nc3c2c(C(C)C)nn3-c2cccc(C)c2)C1: 1490
- O=C(O)c1cc(N2CCC(N3CCOCC3)CC2)c2c(C3CCC3)nn(-c3ccnc(OCC4CCOCC4)c3)c2n1: 256
- CN(C1CCN(c2cc(C(=O)O)nc3c2c(C2CCC2)nn3-c2ccccc2)CC1)C1COC1: 224
- CN(c1ncc(-c2cc(C(=O)O)nc3c2c(C2CCC2)nn3-c2cccc(N3CCCC3)c2)cn1)C1CCOCC1: 515
- O=C(O)c1cc(N2CCC3(CC2)CC(O)C3)c2c(C3CCC3)nn(-c3ccccc3)c2n1: 242
- CN1CCC[C@]12C[C@@H](Oc1cc(C(=O)O)nc3c1c(C1CCC1)nn3-c1ccccc1)C2: 409
- CC(C)c1nn(-c2ccc(F)cc2)c2nc(C(=O)O)cc(OCCCN3CCCCC3)c12: 3330
- CC(C)OC(=O)N1CC[C@@H]2CN(c3cc(C(=O)O)nc4c3c(C3CCC3)nn4-c3ccccc3)CC[C@@H]21 (racemic): 44.8
- Cc1nn(-c2ccccc2)c2nc(C(=O)O)cc(O[C@H]3C[C@@H](N4CCCCC4)C3)c12: 4170
- CC(C)c1nn(C2CCCCC2)c2nc(C(=O)O)cc(-c3cnn(C(C)C)c3)c12: 1160
- CC(C)c1nn(C2CCOC2)c2nc(C(=O)O)cc(-c3ccc(N4CCOCC4)cc3)c12 (stereo not shown): 3140
- CC(C)c1nn(C2CCCCC2)c2nc(C(=O)O)cc(-c3cnc(N4CCC(C#N)CC4)nc3)c12: 743
- O=C(O)c1cc(N2CCC(N3CCN(C4CC4)CC3)CC2)c2c(C3CCC3)nn(-c3ccccc3)c2n1: 110
- CC(C)c1nn(-c2cc(F)cc(F)c2)c2nc(C(=O)O)cc(-c3ccc(N(C)C4CCOCC4)nc3)c12: 467
- O=C(O)c1cc(N2CC[C@@H](N3CCOCC3)C2)c2c(C3CCC3)nn(-c3ccccc3)c2n1: 1150
- Cc1nn(-c2cccc(N(C)C)c2)c2nc(C(=O)O)cc(-c3cnc(N4CCOCC4)nc3)c12: 883
- CN(c1cc(C(=O)O)nc2c1c(C1CCC1)nn2-c1ccccc1)[C@H]1C[C@@H](OC(C)(C)C)C1: 1110
- CN1CCC2(CC1)CCN(c1cc(C(=O)O)nc3c1c(C1CCC1)nn3-c1ccc(F)cc1)CC2: 2410
- COc1cc(-n2nc(C3CCC3)c3c(N4CCC(N5CCOCC5)CC4)cc(C(=O)O)nc32)ccn1: 67.6
- Cc1nn(-c2ccccc2)c2nc(C(=O)O)cc(N3CC4(CCOCC4)C3)c12: 2510
- CC(C)c1nn(-c2ccc(F)cc2)c2nc(C(=O)O)cc(N3CC(N4CCCC4)C3)c12: 788
- Cc1cccc(-n2nc(C(C)C)c3c(N4CCC(S(C)(=O)=O)C4)cc(C(=O)O)nc32)c1 (stereo not shown): 3340
- Cc1nn(-c2ccccc2)c2nc(C(=O)O)cc(O[C@@H]3CCCN(C)C3)c12: 7500
- Cc1nn(-c2ccccc2)c2nc(C(=O)O)cc(C3=CCOCC3)c12: 3340
